assay: Quantitative High-Throughput drug screen in 47 multiple myeloma cell lines against the NCATS MIPE library collection: XG1_PLB cell viability assay (AID 1919866); settings: CellTiter-Glo ATP, 48 h; series mostly up to 45.8 µM; note: nearly all actives have a fitted effect of over 35% in size
Inconclusive results are not listed. Active and inactive are the calls of the source. Calls come from the whole dose curve; as a rule, active = well fitted cell-killing curve with a large enough effect; inconclusive = small, poorly fitted or top-dose-only effect, or effect the other way; inactive = no such curve, though single readings can be large or run the other way.
Outcome (select one): active, inactive

Take a look at these entries with their results.
{"columns": ["compound", "class label"],
 "data": [
  ["CCN(CCO)CCCOc1ccc2c(Nc3cc(CC(=O)Nc4cccc(F)c4)[nH]n3)ncnc2c1", "active"],
  ["NC[C@H]1O[C@H](O[C@@H]2[C@@H](O)[C@@H](O[C@H]3O[C@H](CO)[C@@H](O)[C@H](N)[C@@H]3O)[C@H](N)C[C@@H]2N)[C@H](O)[C@@H](O)[C@H]1O", "inactive"],
  ["C[C@@H](N)c1ccc(C(=O)Nc2ccnc3[nH]ccc23)cc1", "active"],
  ["COc1nccc(-c2c(-c3ccc(F)cc3)ncn2C2CCNCC2)n1", "active"],
  ["CC(C)c1onc(-c2c(Cl)cccc2Cl)c1COc1ccc(C=Cc2cccc(C(=O)O)c2)c(Cl)c1", "inactive"]
]}

Which result was noted for this compound in the test: CC(C)c1c(C(=O)Nc2ccccc2)c(-c2ccccc2)c(-c2ccc(F)cc2)n1CC[C@H](O)C[C@@H](O)CC(=O)O
active

Please indicate how the test categorized Cc1cnc(CNC(=O)c2c(=O)c3ccc(N4CCCN(C)CC4)nc3n3c2sc2ccccc23)cn1 .
inactive

Test call, this compound: NC1(C(=O)N[C@@H](CCO)c2ccc(Cl)cc2)CCN(c2ncnc3[nH]ccc23)CC1
active

Dear all, I need the recorded test outcome for Cn1cc(-c2ccc3nnc(Sc4ccc5ncccc5c4)n3n2)cn1 , thank you.
active

Hi, do you know how Cc1csc(-c2nnc(Nc3ccc(Oc4ncccc4-c4ccnc(N)n4)cc3)c3ccccc23)c1 came out in this test?
active

For this compound, state the assay outcome: CC(C)(CO)[C@@H](O)C(=O)NCCC(=O)O
inactive
